Each entry below carries its reported decrease in binding at pH 7.5 compared to pH 6.0.
study_target: T1, human IL-2Rβ (CD122 protein, Fc Tag) (27-239) (human, UniProt P14784 27-239)
T1 construct: range 27-239; Bought protein; also called IL-2Rβ subunit; IL-2Rβ-Fc; not shown: Fc Tag of the bought protein (ACRObiosystems ILB-H5253)
T1 sequence (looked up): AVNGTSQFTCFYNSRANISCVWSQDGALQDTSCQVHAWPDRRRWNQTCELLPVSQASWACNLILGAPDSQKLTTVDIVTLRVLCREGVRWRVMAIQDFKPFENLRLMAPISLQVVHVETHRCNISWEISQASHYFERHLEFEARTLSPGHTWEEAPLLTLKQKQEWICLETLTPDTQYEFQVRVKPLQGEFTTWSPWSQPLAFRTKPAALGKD
test_protocol: pH-dependent ELISA (Examples 9-12)
measured_attribute: decrease in binding at pH 7.5 compared to pH 6.0

- binder: "SDCSVANVGDLCNL [SEQ ID NO 515]"
  result: "> 15%"
- binder: "LECRLARLGDLCYL [SEQ ID NO 443]"
  result: "> 15%"
- binder: "QDCRMAHLGELCTL [SEQ ID NO 480]"
  result: "> 50%"
- binder: "QPCRNAHLGQLCDLQTWTNS [SEQ ID NO 505]"
  result: "> 15%"
- binder: "LSCSIAQVGELCDL [SEQ ID NO 456]"
  result: "> 15%"
